B1: tRNA (parent)
chain: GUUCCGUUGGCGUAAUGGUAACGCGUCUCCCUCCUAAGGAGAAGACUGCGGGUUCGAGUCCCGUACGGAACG

Variants of: B1
Assay: yeast fitness, log relative to wild type (ln ratio); higher = fitter; tRNA-Arg(CCU), competitive growth, 37 C, 1 M NaCl
Please note: Fulfilled applies when yeast fitness (ln) is -0.2 or greater, and Not fulfilled applies otherwise.

Task: Is it the case that G6U A43C C66A A70U has yeast fitness (ln) reaching or exceeding -0.2?
Output: Not fulfilled

Task: Please check the record G1A U2G G6A C46U C66A A70U C71U and state if its yeast fitness (ln) is at or above -0.2.
Output: Fulfilled

Task: Is yeast fitness (ln) for U2C G6U C27U C66U A70G C71U at or above -0.2?
Output: Not fulfilled

Task: Threshold query (yeast fitness (ln) >= -0.2) on G1A C27U C66A A70U
Output: Fulfilled

Task: Is it the case that G1A U2G G6U C27U A43C C46U C66U A69G A70G has yeast fitness (ln) reaching or exceeding -0.2?
Output: Not fulfilled
